biological target: T1, human IGF-IR (Homo sapiens, UniProt P08069); assay: Surface plasmon resonance (BIAcore) binding kinetics and affinity on immobilized IGF-IR; conditions: Table 4, optimized 218C04 clones
T1 construct: The extracellular domain of human IGF-IR (aa 1-932) was cloned into a mammalian expression vector; made in house
value-kind: kd

* 353H09 (protein) VSDVPRDLEVVAATPTSLLISWSDKLKVQRYYRITYGETGGNSPVQEFTVPKHDRTATISGLKPGVDYTITVYAVTKMRDYRPISINYRTHHHHHH | 2.2 1/s × 10^−4
* 354A10 (protein) VSDVPRDLEVVAATPTSLLISWSNRLVVKRYYRITYGETGGNSPVQEFTVPHQMKTATISGLKPGVDYTITVYAVTPGGYSGRNYGPISINYRTHHHHHH | 1.8 1/s × 10^−4
